Molecular target: trypsin (Bos taurus, UniProt P00760)
Sequence (P00760 24-246): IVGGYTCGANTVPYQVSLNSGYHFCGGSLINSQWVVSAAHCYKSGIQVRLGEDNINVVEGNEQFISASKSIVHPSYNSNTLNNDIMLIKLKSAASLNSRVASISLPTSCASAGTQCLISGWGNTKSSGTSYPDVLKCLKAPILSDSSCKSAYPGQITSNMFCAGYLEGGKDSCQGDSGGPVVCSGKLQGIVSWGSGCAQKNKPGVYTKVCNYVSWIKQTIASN
Assay: In vitro trypsin conversion of prodrugs to amphetamine and inhibition by trypsin inhibitor
Conditions: bovine, trypsin from bovine pancreas, pH 8, with Compound 109 (trypsin inhibitor), 2 uM
observed.property: half-life
Write your answer as a measured quantity: the number, then the unit.

Known half-life results, listed for orientation:
- molecule: "C[C@@H](Cc1ccccc1)NC(=O)[C@H](CCCNC(=N)N)NC(=O)CC(=O)O"
  test.system: "trypsin (Bos taurus, UniProt P00760)"
  half-life: "68.5 h"
- molecule: "C[C@@H](Cc1ccccc1)NC(=O)[C@@H](N)CCCCN [Compound AM-3, lisdexamphetamine, reference compound]"
  test.system: "trypsin (Bos taurus, UniProt P00760)"
  half-life: "393 h"

Alright, here's another molecule for you.
// query Please list half-life recorded for the molecule CC(=O)N[C@@H](CCCNC(=N)N)C(=O)N[C@@H](C)Cc1ccccc1 (stereo in doubt)
// result 54 h
